Biological target: ACVR2B (human)
Assay: KINOMEscan competition binding
Details: compound 10.0 µM
# kinase still bound, per cent of control listing for each entry below
reportedProperty: kinase still bound, per cent of control (%)

- compoundSmiles: "N=C1NC(=O)/C(=C/c2ccc(-c3cccc4cc[nH]c34)o2)S1"
  measuredTarget: "ACVR2B (human)"
  assayResult: 20
- compoundSmiles: "N=C1NC(=O)/C(=C/c2ccc(-c3ccc(S(N)(=O)=O)cc3)o2)S1"
  measuredTarget: "ACVR2B (human)"
  assayResult: 30
- compoundSmiles: "N=C1NC(=O)/C(=C/c2ccc(-c3csc4ccccc34)o2)S1"
  measuredTarget: "ACVR2B (human)"
  assayResult: 10
- compoundSmiles: "CS(=O)(=O)Nc1ccc(-c2ccc(/C=C3\\SC(=N)NC3=O)o2)cc1"
  measuredTarget: "ACVR2B (human)"
  assayResult: 14
- compoundSmiles: "COc1cc(N2CCN(C)CC2)ccc1Nc1ncc2c(n1)N(C)c1ccccc1N(C)C2=O"
  measuredTarget: "ACVR2B (human)"
  assayResult: 92
- compoundSmiles: "CS(=O)(=O)Nc1ccc(-c2ncc(/C=C3\\SC(=N)NC3=O)s2)cc1"
  measuredTarget: "ACVR2B (human)"
  assayResult: 16
- compoundSmiles: "N=C1NC(=O)/C(=C/c2ccc(-c3cnc4ccccc4c3)o2)S1"
  measuredTarget: "ACVR2B (human)"
  assayResult: 21

----------
Biological target: UniProtKB P49840
Sequence (P49840 whole entry, looked up): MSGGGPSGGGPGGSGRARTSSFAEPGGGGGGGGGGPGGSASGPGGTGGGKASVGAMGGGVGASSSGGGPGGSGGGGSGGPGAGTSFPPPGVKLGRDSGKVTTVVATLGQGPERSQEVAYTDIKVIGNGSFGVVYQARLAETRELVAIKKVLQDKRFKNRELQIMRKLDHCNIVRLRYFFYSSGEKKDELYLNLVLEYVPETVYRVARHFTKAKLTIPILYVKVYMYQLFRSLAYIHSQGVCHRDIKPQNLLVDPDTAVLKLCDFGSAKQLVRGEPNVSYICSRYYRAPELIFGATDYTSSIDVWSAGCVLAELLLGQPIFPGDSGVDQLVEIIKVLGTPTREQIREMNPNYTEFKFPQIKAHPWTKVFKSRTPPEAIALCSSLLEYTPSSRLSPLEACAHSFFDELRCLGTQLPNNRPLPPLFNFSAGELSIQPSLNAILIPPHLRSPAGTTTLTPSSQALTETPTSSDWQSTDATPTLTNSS
Assay: KINOMEscan competition binding
Conditions: compound 10.0 µM

- compoundSmiles: "CS(=O)(=O)Nc1ccc(-c2ccc(/C=C3\\SC(=N)NC3=O)o2)cc1"
  unitAbbrev: "%"
  kinase still bound, per cent of control: 10
- compoundSmiles: "COc1cc(C(N)=O)ccc1-c1ccc(/C=C2\\SC(=N)NC2=O)o1"
  unitAbbrev: "%"
  kinase still bound, per cent of control: 28
- compoundSmiles: "CN1C(=O)c2ccccc2N(C)c2nc(NS(=O)(=O)c3ccc(N)cc3)ncc21"
  unitAbbrev: "%"
  kinase still bound, per cent of control: 100
- compoundSmiles: "N=C1NC(=O)/C(=C/c2ccc(-c3cnc4ccccc4c3)o2)S1"
  unitAbbrev: "%"
  kinase still bound, per cent of control: 17
